Values compiled from patent US20230151091A1.

Recorded measurements of kon, one per entry
- testedOn: T1, rat MuSK (rat, UniProt Q62838 22-494, limits assumed)
- T1 construct: Coated on Biacore chip (200RU) or ELISA plate
- T1 sequence (looked up): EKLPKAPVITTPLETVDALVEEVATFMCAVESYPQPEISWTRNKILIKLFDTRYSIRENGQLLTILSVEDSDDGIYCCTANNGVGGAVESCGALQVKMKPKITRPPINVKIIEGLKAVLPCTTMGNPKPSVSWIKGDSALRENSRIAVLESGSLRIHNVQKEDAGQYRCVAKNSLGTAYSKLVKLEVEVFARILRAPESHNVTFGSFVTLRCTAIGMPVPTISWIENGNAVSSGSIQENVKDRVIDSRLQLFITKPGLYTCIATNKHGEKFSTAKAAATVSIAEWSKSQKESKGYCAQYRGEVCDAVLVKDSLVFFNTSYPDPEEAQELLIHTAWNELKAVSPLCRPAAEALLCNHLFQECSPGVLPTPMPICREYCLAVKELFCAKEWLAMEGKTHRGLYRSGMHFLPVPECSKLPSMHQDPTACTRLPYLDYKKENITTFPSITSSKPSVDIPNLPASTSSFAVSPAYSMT
- procedureText: Biacore, MuSK on chip (200RU), 66.7 nM mAb, dissociation pH 7.4

binder: 3B2 (antibody, V domains shown, human IgG1 with the LALA mutations (L234A, L235A); produced in HEK293 cells; also called 3B2 mAb; parental 3B2 Ab) VH: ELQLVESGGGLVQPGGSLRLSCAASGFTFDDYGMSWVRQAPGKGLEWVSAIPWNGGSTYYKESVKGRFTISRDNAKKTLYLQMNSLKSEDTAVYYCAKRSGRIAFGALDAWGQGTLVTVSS VL: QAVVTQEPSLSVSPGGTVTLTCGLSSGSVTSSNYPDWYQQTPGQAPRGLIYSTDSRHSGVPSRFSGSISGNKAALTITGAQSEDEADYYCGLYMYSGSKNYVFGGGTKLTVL
kon [M⁻¹ s⁻¹]: 1.14e+06
--
binder: 3B2g1m4 (antibody, human IgG1, V domains shown, human IgG1-LALA backbone; produced in HEK293 cells) VH: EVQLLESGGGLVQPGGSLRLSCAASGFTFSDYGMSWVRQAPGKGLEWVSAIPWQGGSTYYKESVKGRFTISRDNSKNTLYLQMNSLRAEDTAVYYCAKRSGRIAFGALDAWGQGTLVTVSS VL: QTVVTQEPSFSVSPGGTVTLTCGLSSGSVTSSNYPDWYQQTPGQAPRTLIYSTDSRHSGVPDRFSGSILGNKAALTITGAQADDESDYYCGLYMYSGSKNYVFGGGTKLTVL
kon [M⁻¹ s⁻¹]: 1.12e+06
--
binder: 3B2g1m1 (antibody, human IgG1, V domains shown, human IgG1-LALA backbone; produced in HEK293 cells) VH: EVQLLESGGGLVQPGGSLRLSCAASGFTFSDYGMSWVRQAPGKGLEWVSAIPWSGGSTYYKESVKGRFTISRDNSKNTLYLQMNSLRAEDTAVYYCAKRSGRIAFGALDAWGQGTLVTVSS VL: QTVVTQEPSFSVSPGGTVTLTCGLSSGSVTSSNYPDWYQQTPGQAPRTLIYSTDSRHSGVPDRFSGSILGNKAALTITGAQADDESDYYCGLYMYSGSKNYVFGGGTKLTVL
kon [M⁻¹ s⁻¹]: 1.32e+06
--
binder: 3B2g2m4 (antibody, human IgG1, V domains shown, human IgG1-LALA backbone; produced in HEK293 cells) VH: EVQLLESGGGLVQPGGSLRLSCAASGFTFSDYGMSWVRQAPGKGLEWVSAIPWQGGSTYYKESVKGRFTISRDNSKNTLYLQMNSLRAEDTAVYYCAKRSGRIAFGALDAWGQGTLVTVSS VL: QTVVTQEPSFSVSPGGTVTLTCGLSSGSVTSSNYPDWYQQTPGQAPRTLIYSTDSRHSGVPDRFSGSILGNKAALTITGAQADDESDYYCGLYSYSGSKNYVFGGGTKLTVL
kon [M⁻¹ s⁻¹]: 1.19e+06
--
binder: 3B2g1m2 (antibody, human IgG1, V domains shown, human IgG1-LALA backbone; produced in HEK293 cells) VH: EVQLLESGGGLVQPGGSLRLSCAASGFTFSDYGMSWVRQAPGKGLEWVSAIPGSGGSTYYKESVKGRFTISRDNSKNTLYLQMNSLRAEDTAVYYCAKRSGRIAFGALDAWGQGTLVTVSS VL: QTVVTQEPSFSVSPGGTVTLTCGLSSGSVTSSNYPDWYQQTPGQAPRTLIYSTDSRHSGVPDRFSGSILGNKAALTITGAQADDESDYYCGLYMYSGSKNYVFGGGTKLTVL
kon [M⁻¹ s⁻¹]: 1.45e+06
--
binder: 3B2g2m1 (antibody, human IgG1, V domains shown, human IgG1-LALA backbone; produced in HEK293 cells; also called MuSK agonist antibody 3B2g2m1; MuSK-mAb 3B2g2m1) VH: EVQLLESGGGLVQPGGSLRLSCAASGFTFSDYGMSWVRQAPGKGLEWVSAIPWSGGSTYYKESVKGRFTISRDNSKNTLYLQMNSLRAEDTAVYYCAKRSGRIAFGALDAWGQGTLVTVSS VL: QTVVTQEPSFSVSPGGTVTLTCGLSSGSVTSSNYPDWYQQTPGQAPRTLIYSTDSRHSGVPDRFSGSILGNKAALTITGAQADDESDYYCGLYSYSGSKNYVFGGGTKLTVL
kon [M⁻¹ s⁻¹]: 1.4e+06
